All figures here come from ChEMBL document CHEMBL4138123.

test system: RXF 393; assay: Cytotoxicity against human RXF393 cells assessed as cell growth at 1 uM after 48 hrs by sulforhodamine B assay relative to control; format: functional; conditions: RXF 393, 48 h, read-out: Activity
Give measured growth at 1 µM for each item. Keep answers brief.
Respond numerically; units are % and should not be typed.

Query string: Requested field: growth at 1 µM. Item: COc1cc(-c2cc(/C=C/C(=O)c3ccc(Cl)c(Cl)c3)[nH]n2)cc(OC)c1OC
Result string: 81

Query string: Requested field: growth at 1 µM. Item: COc1cc(C(=O)/C=C/c2cc(-c3ccc4c(c3)OCO4)n[nH]2)cc(OC)c1OC
Result string: 67

Query string: Requested field: growth at 1 µM. Item: COc1ccc(-c2cc(/C=C/C(=O)c3cc(OC)c(OC)c(OC)c3)[nH]n2)cc1OC
Result string: 80

Query string: Requested field: growth at 1 µM. Item: COc1ccc(C(=O)/C=C/c2cc(-c3ccc(OC)c(OC)c3)n[nH]2)cc1OC
Result string: 76

Query string: Requested field: growth at 1 µM. Item: COc1cc(C(=O)/C=C/c2cc(-c3cc(OC)c(OC)c(OC)c3)n[nH]2)cc(OC)c1OC
Result string: 65

Query string: Requested field: growth at 1 µM. Item: COc1cc2c(cc1OC)C(=O)/C(=C/c1cc(-c3ccc4c(c3)OCO4)n[nH]1)C2
Result string: 80

Query string: Requested field: growth at 1 µM. Item: COc1ccc(C(=O)/C=C/c2cc(-c3cc(OC)c(OC)c(OC)c3)n[nH]2)cc1OC
Result string: 72

----------
system: HCT-116; assay: Cytotoxicity against human HCT116 cells assessed as growth inhibition after 48 hrs by sulforhodamine B assay; format: functional; conditions: HCT-116, 48 h
Give measured LC50 for each item. Keep answers brief.

Query string: Requested field: LC50. Item: COc1ccc(C(=O)/C=C/c2cc(-c3cc(OC)c(OC)c(OC)c3)n[nH]2)cc1
Result string: > 100 µM

Query string: Requested field: LC50. Item: COc1cc(C(=O)/C=C/c2cc(-c3ccc4c(c3)OCO4)n[nH]2)cc(OC)c1OC
Result string: > 100 µM

Query string: Requested field: LC50. Item: COc1cc(-c2cc(/C=C/C(=O)c3ccc(F)c(F)c3)[nH]n2)cc(OC)c1OC
Result string: 94.2 µM

Query string: Requested field: LC50. Item: COc1ccc(C(=O)/C=C/c2cc(-c3ccc4c(c3)OCO4)n[nH]2)cc1OC
Result string: 56.2 µM

----------
tested on: KM12; test: Cytotoxicity against human KM12 cells assessed as cell growth at 1 uM after 48 hrs by sulforhodamine B assay relative to control; type: functional; conditions: KM12, 48 h, read-out: Activity
EXPERIMENTAL ENDPOINT: growth at 1 µM (%)
Respond numerically; units are % and should not be typed.

Query string: Requested field: growth at 1 µM. Item: COc1ccc(C(=O)/C=C/c2cc(-c3cc(OC)c(OC)c(OC)c3)n[nH]2)cc1OC
Result string: 54

Query string: Requested field: growth at 1 µM. Item: COc1cc2c(cc1OC)C(=O)/C(=C/c1cc(-c3ccc4c(c3)OCO4)n[nH]1)C2
Result string: 67

Query string: Requested field: growth at 1 µM. Item: COc1ccc(C(=O)/C=C/c2cc(-c3cc(OC)c(OC)c(OC)c3)n[nH]2)cc1
Result string: 83

Query string: Requested field: growth at 1 µM. Item: COc1ccc(C(=O)/C=C/c2cc(-c3ccc4c(c3)OCO4)n[nH]2)cc1OC
Result string: 94

Query string: Requested field: growth at 1 µM. Item: COc1cc(C(=O)/C=C/c2cc(-c3cc(OC)c(OC)c(OC)c3)n[nH]2)cc(OC)c1OC
Result string: 79

Query string: Requested field: growth at 1 µM. Item: COc1ccc(-c2cc(/C=C/C(=O)c3ccc(N)cc3)[nH]n2)cc1
Result string: 77

----------
Give measured LC50 for each item. Keep answers brief.
test system: T47D; test: Cytotoxicity against human T47D cells assessed as growth inhibition after 48 hrs by sulforhodamine B assay; type: functional

Query string: Requested field: LC50. Item: COc1ccc(-c2cc(/C=C/C(=O)c3ccc(N)cc3)[nH]n2)cc1OC
Result string: > 100 µM

Query string: Requested field: LC50. Item: COc1ccc(C(=O)/C=C/c2cc(-c3cc(OC)c(OC)c(OC)c3)n[nH]2)cc1
Result string: > 100 µM

Query string: Requested field: LC50. Item: COc1ccc(-c2cc(/C=C/C(=O)c3cc(OC)c(OC)c(OC)c3)[nH]n2)cc1OC
Result string: > 100 µM

Query string: Requested field: LC50. Item: COc1cc2c(cc1OC)C(=O)/C(=C/c1cc(-c3ccc4c(c3)OCO4)n[nH]1)C2
Result string: 5.62 µM

----------
tested on: T47D; experiment: Cytotoxicity against human T47D cells assessed as cell growth at 10 uM after 48 hrs by sulforhodamine B assay relative to control; format: functional; conditions: read-out: Activity
Lab note: cut-off is -10%. Strictly less in growth at 10 µM is yes. Exactly -10% or more is no.

Query string: # TODO verify growth at 10 µM < -10% strictly for this molecule: COc1ccc(C(=O)/C=C/c2cc(-c3cc(OC)c(OC)c(OC)c3)n[nH]2)cc1
Result string: no

Query string: # TODO verify growth at 10 µM < -10% strictly for this molecule: COc1ccc(-c2cc(/C=C/C(=O)c3ccc(N)cc3)[nH]n2)cc1
Result string: no

Query string: # TODO verify growth at 10 µM < -10% strictly for this molecule: COc1cc(-c2cc(/C=C/C(=O)c3ccc4c(c3)OCO4)[nH]n2)cc(OC)c1OC
Result string: no

Query string: # TODO verify growth at 10 µM < -10% strictly for this molecule: COc1cc2c(cc1OC)C(=O)/C(=C/c1cc(-c3ccc4c(c3)OCO4)n[nH]1)C2
Result string: yes

Query string: # TODO verify growth at 10 µM < -10% strictly for this molecule: COc1ccc(C(=O)/C=C/c2cc(-c3ccc(OC)c(OC)c3)n[nH]2)cc1OC
Result string: yes

Query string: # TODO verify growth at 10 µM < -10% strictly for this molecule: COc1cc(C(=O)/C=C/c2cc(-c3ccc4c(c3)OCO4)n[nH]2)cc(OC)c1OC
Result string: yes

Query string: # TODO verify growth at 10 µM < -10% strictly for this molecule: COc1ccc(C(=O)/C=C/c2cc(-c3cc(OC)c(OC)c(OC)c3)n[nH]2)cc1OC
Result string: yes

----------
Give measured growth at 1 µM for each item. Keep answers brief.
test system: U-251; assay: Cytotoxicity against human U251 cells assessed as cell growth at 1 uM after 48 hrs by sulforhodamine B assay relative to control; assay type: functional; settings: U-251, 48 h, read-out: Activity
Respond numerically; units are % and should not be typed.

Query string: What value of growth at 1 µM on U-251 does COc1cc(-c2cc(/C=C/C(=O)c3ccc(F)c(F)c3)[nH]n2)cc(OC)c1OC have?
Result string: 87

Query string: What value of growth at 1 µM on U-251 does COc1ccc(C(=O)/C=C/c2cc(-c3cc(OC)c(OC)c(OC)c3)n[nH]2)cc1 have?
Result string: 81

Query string: What value of growth at 1 µM on U-251 does COc1ccc(-c2cc(/C=C/C(=O)c3cc(OC)c(OC)c(OC)c3)[nH]n2)cc1OC have?
Result string: 65

Query string: What value of growth at 1 µM on U-251 does COc1ccc(-c2cc(/C=C/C(=O)c3ccc(N)cc3)[nH]n2)cc1 have?
Result string: 65

----------
tested on: RPMI-8226; test: Cytotoxicity against human RPMI8226 cells assessed as cell growth at 0.1 uM after 48 hrs by sulforhodamine B assay relative to control; assay type: functional; settings: RPMI-8226, 48 h, read-out: Activity
EXPERIMENTAL ENDPOINT: growth at 0.1 µM (%)
Respond numerically; units are % and should not be typed.

Query string: Requested field: growth at 0.1 µM. Item: COc1cc(-c2cc(/C=C/C(=O)c3ccc4c(c3)OCO4)[nH]n2)cc(OC)c1OC
Result string: 83

Query string: Requested field: growth at 0.1 µM. Item: COc1cc(-c2cc(/C=C/C(=O)c3ccc(N)cc3)[nH]n2)cc(OC)c1OC
Result string: 97

Query string: Requested field: growth at 0.1 µM. Item: COc1cc(C(=O)/C=C/c2cc(-c3ccc4c(c3)OCO4)n[nH]2)cc(OC)c1OC
Result string: 93

Query string: Requested field: growth at 0.1 µM. Item: COc1cc(-c2cc(/C=C/C(=O)c3ccc(F)c(F)c3)[nH]n2)cc(OC)c1OC
Result string: 90
